A collection of molecules and their measured TGI
tested on: SK-MEL-5 melanoma; test: NCI tumour cell line growth inhibition, 48 h

Previously resolved entries follow.
May I ask what TGI has been recorded for CC[C@H](C)C1=C(OC(C)=O)[N@+]2([O-])Oc3ccc(-c4c(O)c(O)c(-c5ccc(OC(C)=O)cc5)c(OC(C)=O)c4OC(C)=O)cc3O[C@]2([C@@H](C)CC)C(=O)N1O ?
> 50 µM

Further, for COC(=O)CN(CC(O)C(NC(C)=O)C(O)C=O)C(=O)OCc1ccccc1 (centres undefined) ?
> 100 µM

Further, for COc1cccc2c1C1(O)C2CCCCCCCCCC12OCCCO2 (centres undefined) ?
> 100 µM

New cases:
May I ask what TGI has been recorded for COc1ccc2c3c([nH]c(=O)c2c1C(=O)O)-c1ccccc1CC3 ?
> 100 µM

----------
tested on: TK-10 renal; experiment: NCI tumour cell line growth inhibition, 48 h; in the data active = GI50 below about 0.43 µM; inactive = the rest
Outcome field: choose from active, inactive

Which outcome was assigned to O=C(Nc1cccc(-n2cc(-c3ccncc3)c(-c3ccc(O)c(Cl)c3)n2)c1)c1ccc2c(c1)OCCO2 in this test?
inactive

Further, for COCCOCCOCc1n(Cc2ccc3ccccc3c2)c2ccccc2[n+]1Cc1ccc2ccccc2c1 ?
inactive

Further, for O=C1/C=C/[C@@H](O)[C@@H]2C[C@@H](O)C[C@H]2/C=C/CCC[C@H](CCc2ccc3ncccc3c2)O1 ?
active

Further, for C[C@]12CC[C@@H]3c4ccc(O)cc4CC[C@H]3[C@@H]1CC[C@@H]2NS(=O)(=O)c1ccc(Br)cc1 ?
inactive

Then there is this molecule:
Which outcome was assigned to CNC(=O)c1cc(Oc2cccc3nc(NC(=O)Nc4cc(C(F)(F)F)cc(C(F)(F)F)c4)ccc23)ccn1 in this test?
inactive

----------
system: DMS 114 small cell lung; assay: NCI tumour cell line growth inhibition, 48 h
A collection of compounds and their measured TGI

Previously resolved entries follow.
May I ask what TGI has been recorded for COc1ccc2c3c([nH]c(=O)c2c1C(=O)O)-c1ccccc1CC3 ?
> 100 µM

Further, for C[P+](C)(C)C ?
> 100 µM

Further, for O=C1N2Cc3c4ccc5c3CN3C(=O)N6Cc7c(ccc(c7CN1C6(c1ccccc1)C23c1ccccc1)OCCOCCOc1cc(Br)c(Br)cc1OCCOCCO4)OCCOCCOc1cc(Br)c(Br)cc1OCCOCCO5 (centres undefined) ?
> 100 µM

Now consider the entry below.
May I ask what TGI has been recorded for c1ccc(CN2CCc3[nH]c4ccccc4c3C2)cc1 ?
47.3 µM

----------
A collection of compounds and their measured TGI
test system: ACHN renal; experiment: NCI tumour cell line growth inhibition, 48 h

May I ask what TGI has been recorded for [N-]=[N+]=NC1(c2ccccc2)C(=O)C(Cl)=C(c2ccccc2)N(c2ccccc2)C1=O (stereo not given) ?
> 100 µM

Further, for COc1ccc(C(C)c2cc(OC)c(OC)c(OC)c2)cc1 (stereo not given) ?
> 50 µM

Further, for N#Cc1c(-c2ccccc2)cc(-c2ccc(N)cc2)[nH]c1=O ?
> 100 µM

Further, for Cc1cccc(C)c1NC(=O)CCc1nnc2s/c(=C\c3ccc(N(C)C)cc3)c(=O)n12 ?
> 100 µM

Further, for NC1C=NNC1=O (stereo not given) ?
> 100 µM

----------
test system: SF-539 CNS; experiment: NCI tumour cell line growth inhibition, 48 h
MEASUREMENT_TYPE: TGI

May I ask what TGI has been recorded for COc1ccc(/C=C2\C[C@H]3[C@@H]4CC=C5C[C@@H](OC(C)=O)CC[C@]5(C)[C@H]4CC[C@]3(C)\C2=N\O)cc1OC ?
> 100 µM

Now consider the entry below.
May I ask what TGI has been recorded for O=C(Cc1nc2sc3c(c2c(=O)[nH]1)CCCC3)Nc1ccccc1 ?
> 100 µM

----------
test system: CAKI-1 renal; assay: NCI tumour cell line growth inhibition, 48 h
MEASUREMENT_TYPE: TGI (µM)
Output spec: scalar in µM, unitless text.

Provide value of TGI for this record tested with CAKI-1 renal: O=C(CSCC(=O)N/N=C/c1ccccc1O)N/N=C\c1ccccc1O
9.82

New cases:
Provide value of TGI for this record tested with CAKI-1 renal: O=S(=O)(NCCNc1nccc(-c2c(-c3ccc(F)c(O)c3)nc3sccn23)n1)c1ccc(Cl)cc1
10.4

Further, for O=C(O)c1cc2ccccc2c2c3c(ccc12)OCO3 ?
761

----------
test system: HCT-15 colon; test: NCI tumour cell line growth inhibition, 48 h
MEASUREMENT_TYPE: TGI

Previously resolved entries follow.
May I ask what TGI has been recorded for CCC1C(C)C=NN1c1nc(N)nc(C(C#N)=Nc2ccc(N(C)C)cc2)n1 (centres undefined) ?
> 50 µM

Further, for N#C/C(c1nc2ccccc2[nH]1)=c1\s/c(=C(/N)O)c(=N)n1-c1ccccc1 ?
> 100 µM

Further, for C/C=C/C/C=C/[C@H](C)C[C@H](O)[C@@H]1C[C@@H]2O[C@H]2/C=C/[C@@H]2OC(C)(C)O[C@H]2/C=C/C[C@H](C)CC(=O)O1 ?
> 100 µM

Now consider the entry below.
May I ask what TGI has been recorded for CCOc1ccccc1NC(=O)C(=O)C(/C(=N/N)C(=O)OC)c1nc2ccc([N+](=O)[O-])cc2[nH]c1=O (centres undefined) ?
> 100 µM

----------
tested on: SNB-19 CNS; test: NCI tumour cell line growth inhibition, 48 h
A collection of compounds and their measured TGI

May I ask what TGI has been recorded for Cn1nc2ccc([N+](=O)[O-])cc2[n+]1[O-] ?
> 100 µM

Further, for CCOC(=O)C(Cc1c[nH]c2cc(N(CCO)CCO)ccc12)(NC(C)=O)C(=O)OCC ?
> 1000 µM

Further, for CC(C)(C)C1CCC2c3c([nH]c4ncccc34)C3C(=O)N(c4ccccc4)C(=O)C3C2C1 (centres undefined) ?
> 100 µM

Now consider the entry below.
May I ask what TGI has been recorded for CCCCCCCCOCC(O)CO (centres undefined) ?
> 100 µM

----------
system: OVCAR-4 ovarian; assay: NCI tumour cell line growth inhibition, 48 h
A collection of compounds and their measured TGI

Previously resolved entries follow.
May I ask what TGI has been recorded for CN(CCO)Cc1ncccc1O ?
> 100 µM

Further, for CC1(C)CCCC2(C)C3C(O)CC2(C)C(O)C31 (stereo not drawn) ?
> 100 µM

Further, for Cc1cc(-c2nnc(/C=C/c3ccc4c(c3)OCO4)o2)n[nH]1 ?
> 50 µM

Further, for C=C1C(=O)O[C@H]2C1C[C@@H](O)/C(C)=C/CC[C@@]1(C)O[C@H]21 (stereo partly drawn) ?
> 43.4 µM

Further, for Cc1ccc(C(=O)NCCCOc2ccc(N3C(N)=NC(N)=NC3(C)C)cc2Cl)cc1S(=O)(=O)F ?
> 100 µM

Further, for COc1cccc2c1C1(O)C2CCCCCCCCCC12OCCCO2 (stereo not drawn) ?
> 100 µM

Further, for O=C(O)[C@@H]1OCCOCCO[C@@H](C(=O)O)[C@H](C(=O)O)OCCOCCO[C@H]1C(=O)O ?
> 100 µM

New cases:
May I ask what TGI has been recorded for O=C(O)C(O)(c1ccc(-c2ccccc2)cc1)c1ccc(-c2ccccc2)cc1 ?
> 100 µM

----------
test system: MALME-3M melanoma; test: NCI tumour cell line growth inhibition, 48 h
MEASUREMENT_TYPE: TGI (µM)
Output spec: scalar in µM, unitless text.

Previously resolved entries follow.
May I ask what TGI has been recorded for C=C1C(=O)O[C@H]2C1C[C@@H](O)/C(C)=C/CC[C@@]1(C)O[C@H]21 (stereo not given in full) ?
16.9

Further, for CC(=O)c1c(SCCN2CCOCC2)n(-c2ccccc2)c(=S)n(-c2ccccc2)c1=O ?
58.6

Further, for Cc1cn(C2C=CC(COP(=O)(OCc3ccc([N+](=O)[O-])o3)N(C)CCCCCl)O2)c(=O)[nH]c1=O (stereo not given) ?
7.36

Further, for Cc1c(Cl)c(=O)oc2cc(OC/C=C3\CCC(=O)O3)ccc12 ?
32.2

New cases:
May I ask what TGI has been recorded for CN(CCNC(=O)c1c[nH]c2c1ccc1ccccc12)CCNC(=O)c1c[nH]c2c1ccc1ccccc12 ?
23

Further, for CC(C)(C)OC(=O)NCCCCn1c2c(c3ccccc3c1=O)C(=O)c1ccccc1-2 ?
80.6

Further, for O=C1C(=C2CCCC2)CCC1CN1CCCCC1 (stereo not given) ?
30.5

Further, for O=C(CSCC(=O)N/N=C/c1ccccc1O)N/N=C\c1ccccc1O ?
25.2

----------
test system: EKVX NSCLC; assay: NCI tumour cell line growth inhibition, 48 h
A collection of compounds and their measured TGI

Previously resolved entries follow.
May I ask what TGI has been recorded for Cn1c(=O)nc2n(-c3ccc(Cl)cc3)c(-c3ccccc3)c(-c3ccccc3)nc-2c1=O ?
> 100 µM

Further, for CCOC(=O)C1C=C2O[C@@H]3OC4(CCCCC4)O[C@@H]3C2C2C(=O)CCC(=O)[C@@]12C(=O)OC (stereo partly drawn) ?
> 100 µM

Now consider the entry below.
May I ask what TGI has been recorded for O=NN1C(c2ccccc2)C2CCCC(C2=O)C1c1ccccc1 (stereo not drawn) ?
> 79.5 µM
